Target: T1, sIL-6R (soluble IL-6 receptor; SBH Sciences) (human, UniProt P08887 20-365)
T1 construct: also called human IL-6R
T1 sequence: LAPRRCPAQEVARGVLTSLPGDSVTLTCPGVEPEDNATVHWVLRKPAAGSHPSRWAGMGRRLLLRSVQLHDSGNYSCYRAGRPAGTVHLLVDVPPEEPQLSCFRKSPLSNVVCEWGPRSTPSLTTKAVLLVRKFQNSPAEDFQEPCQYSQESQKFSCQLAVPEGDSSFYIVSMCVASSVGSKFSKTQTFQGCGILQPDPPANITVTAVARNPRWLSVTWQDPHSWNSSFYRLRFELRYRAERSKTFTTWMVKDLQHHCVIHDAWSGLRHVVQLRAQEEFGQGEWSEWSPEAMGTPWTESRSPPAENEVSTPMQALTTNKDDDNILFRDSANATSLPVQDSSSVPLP
Assay: SPR (BIAcore 3000), antibody on chip, sIL-6R analyte, 25 C
readoutName: koff (s⁻¹)
Please reply with the bare figure in s⁻¹ and do not write the unit itself.

Answered cases to consult:
1) 31# (antibody, human IgG1, kappa, V domains shown, also called Sample # 31) VH: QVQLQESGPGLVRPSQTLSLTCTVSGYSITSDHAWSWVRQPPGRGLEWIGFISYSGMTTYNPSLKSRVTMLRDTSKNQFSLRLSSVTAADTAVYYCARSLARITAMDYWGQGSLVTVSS VL: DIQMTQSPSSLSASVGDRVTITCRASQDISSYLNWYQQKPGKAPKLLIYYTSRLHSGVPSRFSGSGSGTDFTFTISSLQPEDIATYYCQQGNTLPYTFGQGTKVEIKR ... 5.99e-05
2) 35# (antibody, human IgG1, kappa, V domains shown, also called Sample # 35) VH: QVQLQESGPGLVRPSQTLSLTCTVSGYSITSDHAWSWVRQPPGRGLEWIGYISYSGITTYNPSLKSRVTMLRDTSKNQFSLRLSSVTAADTAVYYCARSLARMTAMDYWGQGSLVTVSS VL: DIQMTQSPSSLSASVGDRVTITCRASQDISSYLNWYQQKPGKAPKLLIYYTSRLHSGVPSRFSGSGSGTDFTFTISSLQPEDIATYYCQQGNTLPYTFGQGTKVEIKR ... 0.000146
3) 3# (antibody, human IgG1, kappa, V domains shown, also called Sample # 3) VH: QVQLQESGPGLVRPSQTLSLTCTVSGYSITSDHAWSWVRQPPGRGLEWIGYISYSGITTYNPSLKSRVTMLRDTSKNQFSLRLSSVTAADTAVYYCARSLARATAMDYWGQGSLVTVSS VL: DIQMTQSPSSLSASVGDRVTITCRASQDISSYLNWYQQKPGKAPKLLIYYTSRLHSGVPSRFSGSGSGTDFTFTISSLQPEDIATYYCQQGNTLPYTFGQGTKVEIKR ... 8.87e-05
4) 27# (antibody, human IgG1, kappa, V domains shown, also called Sample # 27) VH: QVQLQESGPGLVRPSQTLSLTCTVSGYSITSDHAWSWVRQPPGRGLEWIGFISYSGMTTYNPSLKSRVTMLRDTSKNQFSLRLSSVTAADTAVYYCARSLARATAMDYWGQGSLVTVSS VL: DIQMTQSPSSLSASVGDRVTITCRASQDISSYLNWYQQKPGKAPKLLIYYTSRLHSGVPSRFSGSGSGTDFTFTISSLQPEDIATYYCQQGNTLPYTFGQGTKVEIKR ... 4.27e-05
5) 12# (antibody, human IgG1, kappa, V domains shown, also called Sample # 12) VH: QVQLQESGPGLVRPSQTLSLTCTVSGYSITSDHAWSWVRQPPGRGLEWIGFISYSGITTYNPSLKSRVTMLRDTSKNQFSLRLSSVTAADTAVYYCARCLARATAMDYWGQGSLVTVSS VL: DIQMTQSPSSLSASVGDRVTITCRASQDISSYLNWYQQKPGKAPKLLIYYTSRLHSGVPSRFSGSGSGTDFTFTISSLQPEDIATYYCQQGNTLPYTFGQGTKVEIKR ... 0.000126

Next:
The value of koff measured for the binder 9# (antibody, human IgG1, kappa, V domains shown, also called Sample # 9) VH: QVQLQESGPGLVRPSQTLSLTCTVSGYSITSDHAWSWVRQPPGRGLEWIGYISYSGIITYNASLKSRVTMLRDTSKNQFSLRLSSVTAADTAVYYCARCLARTTAMDYWGQGSLVTVSS VL: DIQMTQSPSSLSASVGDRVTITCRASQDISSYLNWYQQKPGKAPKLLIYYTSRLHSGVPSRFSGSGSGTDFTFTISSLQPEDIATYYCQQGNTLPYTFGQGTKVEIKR turned out to be 6.28e-05
